Assay: A549 lung cancer cell viability effects, profiling panel, resazurin fluorescence, 24 h, PK04 Diversity Set (AID 1171); note: test concentration not given here
Conditions: higher = more signal, called active from +8 up or from −8 down
Short version: z-score at least 0.6 is criterion met, less is criterion not met.

Please review the entries below; each comes with its answer.
compound=CN(C)CCCCCCNC(=O)[C@@H]1C[C@@H]2C(=O)N[C@@H](CCCCN)C(=O)N2[C@@H]1c1ccc(O)cc1 cat="criterion not met"
compound=[N-]=[N+]=NCc1ccccc1[C@@H]1OC(c2ccc(OCCCO)cc2)=N[C@]1(Cc1ccccc1)C(=O)NCCN1CCOCC1 cat="criterion met"
compound=COCCOC(=O)N1C(=O)[C@@]2(c3cc(C#CCC(C(=O)OC)C(=O)OC)ccc31)[C@H](c1ccc(O)cc1)N1[C@H](c3ccccc3)[C@H](c3ccccc3)OC(=O)[C@H]1[C@@H]2C(=O)NC[C@H](O)c1ccccc1 cat="criterion met"
compound=COCC(=C=CC[C@@H](O)c1cccc(OCCO)c1)CCO cat="criterion not met"
compound=O=c1cccc(-c2ccco2)o1 cat="criterion not met"

Asked: Check the entry C=CCC(OC(C)=O)[C@@H]1[C@@H](N(Cc2cccc3ccccc23)C(=O)c2ccc(-c3ccccc3)cc2)c2cc(OCCCO)ccc2N1C(=O)c1ccc(-c2ccccc2)cc1 (stereo not given in full) : does z-score equal or exceed 0.6?
Given back: criterion met

Asked: Check the entry COc1ccc(C(=O)Nc2cccc(CN3C(=O)[C@@]4(O[C@@H](CC(=O)N(CCO)Cc5ccccc5)[C@H]([Si](C)(C)c5ccc(OC)cc5)[C@H]4C)c4ccccc43)c2)cc1 : does z-score equal or exceed 0.6?
Given back: criterion not met

Asked: Check the entry COc1ccc([Si](C)(C)[C@@H]2[C@@H](CC(=O)N3Cc4ccccc4C[C@H]3CO)O[C@]3(C(=O)N(c4ccccc4)c4ccccc43)[C@H]2C)cc1 : does z-score equal or exceed 0.6?
Given back: criterion not met

Asked: Check the entry CCCC=C(CCC)[C@@H](NS(=O)(=O)c1cccc2cccnc12)c1ccc(-c2ccccc2)cc1 : does z-score equal or exceed 0.6?
Given back: criterion met

###

Molecular target: Streptavidin (Streptomyces avidinii) (UniProt P22629)
Sequence (P22629 whole entry, looked up): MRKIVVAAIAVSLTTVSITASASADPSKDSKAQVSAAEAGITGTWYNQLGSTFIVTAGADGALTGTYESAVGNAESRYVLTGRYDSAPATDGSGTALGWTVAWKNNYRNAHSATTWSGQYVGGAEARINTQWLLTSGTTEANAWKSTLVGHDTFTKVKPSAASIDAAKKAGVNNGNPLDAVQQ
Assay: streptavidin binders on small-molecule microarray, primary screen, artefact control for SMM compound annotation, biophysical, 635/667 nm fluorescence (AID 1147);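 note: signal reflects streptavidin binding to arrayed compounds as a control protein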
Details: streptavidin binding, higher = more signal
Short version: composite z-score at least 0.6 is 1, less is -1.

molecule=CCOC(=O)C1=C[C@@H](C(C)(C)C)N(S(=O)(=O)c2ccc(C)cc2)[C@H]1c1ccccc1 cat=1
molecule=CC(C)C(=C=CC[C@@H](O)c1cccc(OCCO)c1)C[C@@H](O)c1ccccn1 cat=-1
molecule=COc1ccc(C(=O)Nc2cccc(CN3C(=O)[C@@]4(O[C@@H](CC(=O)N(CCO)Cc5ccccc5)[C@H]([Si](C)(C)c5ccc(OC)cc5)[C@H]4C)c4ccccc43)c2)cc1 cat=-1
molecule=CO[C@H]1O[C@H](CO)[C@@H](OC(=O)Nc2ccc(C#N)cc2)[C@@H]2OC(=O)[C@H](Cc3cccc(Br)c3)C/C=C/C[C@@H](Cc3cccc(Br)c3)C(=O)O[C@@H]12 cat=-1
molecule=Cc1ccc(S[C@]2(C(=O)NCC(C)C)CC(=O)N(C3Cc4ccccc4C3)[C@@H]2c2ccc(CO)cc2I)cc1 cat=-1
molecule=[N-]=[N+]=Nc1ccccc1C[C@]1(C(=O)NCc2ccccc2)COC(c2ccc(OCCCO)cc2)=N1 cat=1

Asked: Check the entry COc1cc(C(O)C2C=CC3C(=O)N(Cc4ccccc4)C(=O)C3N2n2cnnc2)cc(OC)c1OC (centres undefined) : does composite z-score equal or exceed 0.6?
Given back: -1

Asked: Check the entry CN(C)CCCC[C@@H]1NC(=O)[C@@H]2C[C@H](C(=O)O)[C@H](c3cccc(OCCO)c3)N2C1=O : does composite z-score equal or exceed 0.6?
Given back: -1

Asked: Check the entry COc1ccc(NC(=O)O[C@H]2[C@@H]3OC(=O)[C@H](Cc4cccc(Br)c4)C/C=C/C[C@@H](Cc4cccc(Br)c4)C(=O)O[C@H]3[C@@H](OC)O[C@@H]2CO)cc1 : does composite z-score equal or exceed 0.6?
Given back: -1

Asked: Check the entry Nc1cc(Br)ccc1C(=O)O : does composite z-score equal or exceed 0.6?
Given back: 1

Asked: Check the entry O=C1c2ccccc2[C@](Cc2ccccc2I)(C(=O)NC2CC2)[C@H](c2ccc(CO)cc2)N1Cc1ccccc1C(F)(F)F : does composite z-score equal or exceed 0.6?
Given back: 1

Asked: Check the entry COC(=O)[C@@]1(Cc2ccccc2)[C@H]2c3cc(C(=O)N4CCCC4)n(CCSCCO)c3C[C@H]2CN1C(=O)c1ccccc1 : does composite z-score equal or exceed 0.6?
Given back: 1

Asked: Check the entry C=CCNC(=O)[C@@H]1[C@H]2C(=O)O[C@H](c3ccccc3)[C@H](c3ccccc3)N2[C@H](c2ccc(OCCO)cc2)[C@@]12C(=O)N(C(=O)OCCOC)c1ccc(C#CCCO)cc12 : does composite z-score equal or exceed 0.6?
Given back: 1

Asked: Check the entry COCCOC(=O)N1C(=O)[C@@]2(c3cc(C#CCCO)ccc31)[C@H](c1ccccc1OCCO)N1[C@H](c3ccccc3)[C@H](c3ccccc3)OC(=O)[C@H]1[C@@H]2C(=O)N1CCCCCCC1 : does composite z-score equal or exceed 0.6?
Given back: 1

Asked: Check the entry COc1ccc([Si](C)(C)[C@@H]2[C@@H](CC(=O)N3Cc4ccccc4C[C@H]3CO)O[C@]3(C(=O)N(c4ccccc4)c4ccccc43)[C@H]2C)cc1 : does composite z-score equal or exceed 0.6?
Given back: 1

Asked: Check the entry CC(C)C(=C=CC[C@H](O)c1cccc(OCCO)c1)CCO : does composite z-score equal or exceed 0.6?
Given back: -1

Asked: Check the entry [N-]=[N+]=Nc1ccccc1[C@@H]1OC(c2ccc(OCCCO)cc2)=N[C@]1(Cc1ccccc1)C(=O)NCc1ccccc1 : does composite z-score equal or exceed 0.6?
Given back: 1

Asked: Check the entry C=C(COC)C(=O)CC[C@@H](OC(=O)c1cccnc1)c1ccccc1OCCO : does composite z-score equal or exceed 0.6?
Given back: -1

###

Tested on: Sam68 (KHDRBS1)
Experiment: Sam68 small-molecule binders, primary screen, biochemical, small-molecule microarray, 635 nm fluorescence (AID 1125);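 note: score merges 667 nm channel intensity with signal to noise over triplicate slides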
Settings: small-molecule microarray binding, higher = more signal
Parameter measured: composite z-score
Just the number.

compound=CCCCC(=C=CC[C@H](O)c1ccc(OCCO)cc1)C[C@H](O)c1cc(Cl)cc(Cl)c1O observed=0.805
compound=COc1ccc([Si](C)(C)[C@H]2[C@H](CCO)O[C@@]3(C(=O)N(Cc4ccccc4)c4ccc(N5C(=O)c6ccccc6Oc6ccccc65)cc43)[C@@H]2C)cc1 observed=0.442
compound=C=C[C@@H](C)[C@H](O)c1ccc(OCCO)cc1 observed=-0.885
compound=COCC(=C=CC[C@@H](O)c1cccc(OCCO)c1)CCO observed=0.381
compound=Cc1cccc([C@H]2C[C@H]3C(I)=C[C@@H]2C(=O)[C@]32CO2)c1 observed=-0.5

Asked: Could you share which composite z-score value was measured for COCCOC(=O)N1C(=O)[C@@]2(c3cc(C#CCCO)ccc31)[C@H](C(=O)N1CCCCCCC1)[C@H]1C(=O)O[C@H](c3ccccc3)[C@H](c3ccccc3)N1[C@@H]2c1ccccc1OCCO ?
Given back: 1.32

###

Experiment: binders of probe aHhip on microarray, primary screen, stem cell growth factor project, biochemical, small-molecule microarray, fluorescence 635/667 (AID 1087);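 note: score merges spot fluorescence at 667nm with spot signal to noise ratio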
Settings: higher = more signal
composite z-score values, listed per item

# annotated cases, reported composite z-score shown
molecule="NC(=O)N1C(=O)C2C(C1=O)C1C=C(CCCO)C2C(C2CC2)N1Cc1cccc(OC(F)(F)F)c1 (stereo not given)" observed=-0.122
molecule="CN1C(=O)C2C(C1=O)C1C=C(CCCO)C2C(c2cccs2)N1Cc1cc2c(cc1Br)OCO2 (stereo not given)" observed=-0.109
molecule=NC(=O)[C@H]1[C@@H]2C(=O)O[C@@H](c3ccccc3)[C@@H](c3ccccc3)N2[C@@H](c2ccc(O)cc2)[C@]12C(=O)Nc1ccccc12 observed=-0.137
molecule="C=CCC(OC(C)=O)[C@@H]1[C@@H](N(Cc2ccc(-c3cccc(C(F)(F)F)c3)o2)C(=O)Cc2ccc(OC)cc2)c2cc(OCCCO)ccc2N1C(=O)Cc1ccc2ccccc2c1 (stereo not given in full)" observed=0.0505
molecule=[N-]=[N+]=NCc1ccccc1[C@@H]1OC(c2ccc(OCCCO)cc2)=N[C@]1(Cc1ccccc1N=[N+]=[N-])C(=O)NCCN1CCOCC1 observed=-0.213

Alright, here's another molecule for you.
Asked: Could you share which composite z-score value was measured for COCCOC(=O)N1C(=O)[C@@]2(c3cc(C#Cc4ccc(OC)cc4)ccc31)[C@H](c1ccc(OCCO)cc1)N1[C@H](c3ccccc3)[C@H](c3ccccc3)OC(=O)[C@H]1[C@@H]2C(=O)Nc1nc2ccccc2s1 ?
Given back: 0.0695
